B1: TPR 5TU (parent)
chain: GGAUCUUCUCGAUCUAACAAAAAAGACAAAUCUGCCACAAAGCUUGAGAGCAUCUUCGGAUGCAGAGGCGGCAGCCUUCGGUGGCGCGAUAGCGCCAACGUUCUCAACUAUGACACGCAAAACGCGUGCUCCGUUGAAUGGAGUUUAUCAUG

Variants of: B1
assay_remarks: polymerase ribozyme fitness, log enrichment relative to wild type (log ratio); higher = more active; in vitro selection for triplet polymerase activity
Variants at the floor of the assay were thinned out.
recorded_endpoint: polymerase ribozyme fitness (log ratio)
No unit in the answer, only the number.

Known polymerase ribozyme fitness (log ratio) results, listed for orientation:
{"sequence_variant": "U31G U148C", "recorded_endpoint": "polymerase ribozyme fitness (log ratio)", "experimental_result": -2.37}
{"sequence_variant": "A41G G83C C99A", "recorded_endpoint": "polymerase ribozyme fitness (log ratio)", "experimental_result": -2.03}
{"sequence_variant": "U78C A142U", "recorded_endpoint": "polymerase ribozyme fitness (log ratio)", "experimental_result": -1.72}

Pending variant:
Briefly, polymerase ribozyme fitness (log ratio) measured for C93G C108G : -3.9
